Target: Solute carrier family 15 member 1 (Rattus norvegicus, UniProt P51574)
Sequence (P51574 whole entry): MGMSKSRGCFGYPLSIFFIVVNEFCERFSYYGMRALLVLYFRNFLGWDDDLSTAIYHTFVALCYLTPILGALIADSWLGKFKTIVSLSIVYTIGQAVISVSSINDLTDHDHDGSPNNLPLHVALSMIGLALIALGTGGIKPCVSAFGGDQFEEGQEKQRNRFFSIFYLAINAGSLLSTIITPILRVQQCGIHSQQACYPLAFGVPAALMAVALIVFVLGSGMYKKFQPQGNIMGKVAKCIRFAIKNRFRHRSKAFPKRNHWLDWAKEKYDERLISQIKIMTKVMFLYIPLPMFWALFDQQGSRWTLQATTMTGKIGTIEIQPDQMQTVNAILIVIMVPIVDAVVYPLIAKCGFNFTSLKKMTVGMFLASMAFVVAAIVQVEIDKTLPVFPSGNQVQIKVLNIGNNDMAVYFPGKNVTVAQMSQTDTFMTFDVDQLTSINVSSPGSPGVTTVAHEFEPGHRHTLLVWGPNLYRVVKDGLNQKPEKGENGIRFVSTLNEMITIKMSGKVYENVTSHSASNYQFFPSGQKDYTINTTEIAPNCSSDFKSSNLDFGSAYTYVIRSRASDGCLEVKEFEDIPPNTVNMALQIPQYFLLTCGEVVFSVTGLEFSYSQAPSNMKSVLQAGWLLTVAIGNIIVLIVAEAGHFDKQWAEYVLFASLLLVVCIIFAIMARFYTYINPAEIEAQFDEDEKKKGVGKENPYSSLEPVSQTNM
Test: TP_TRANSPORTER: inhibition of Gly-Sar uptake in PEPT1-expressing LLC-PK1 cells
observable: Ki
Write down the value, and be sure its unit follows.

Specify reported Ki for the compound shown: COc1ccc(Cl)cc1C(=O)NCCc1ccc(S(=O)(=O)NC(=O)NC2CCCCC2)cc1 [GLYBURIDE]
25 µM
